Provenance of the data: patent US20130131320A1

Here the recorded TΔS is given for each entry.
- Target Of Assay: T1, soluble EGFR (human epithelial cell growth factor receptor 1, Her1) (human, UniProt P00533 25-645, limits assumed)
- T1 construct: The metal chelate purification implies a His tag, but none is described; also called target antigen
- Test Method Notes: ITC, 50 uM Fv titrated into 5 uM soluble EGFR
Answer in kJ/mol, number only, no unit symbol.

Per the records, this binder ( h528Fv 5.98.0 (other) VH: QVQLVQSGAEVKKPGASVKVSCKASGYTFTSYWMHWVRQAPGQGLEWMGNIWPGQGGTNYAEKFKSRVTMTRDTSISTAYMELSRLRSDDTAVYYCARSGGPYFFDYWGQGTLVTVSS VL: DIVMTQSPLSLPVTPGEPASISCRSSQNIVHNNGITYLEWYLQKPGQSPQLLIYKVSDRFSGVPDRFSGSGSGTDFTLKISRVEAEDVGVYYCFQGSHIPPTFGQGTKVEIKR ) has TΔS equal to -26.9

Item: h528Fv 5.0.0 (other) VH: QVQLVQSGAEVKKPGASVKVSCKASGYTFTSYWMHWVRQAPGQGLEWMGNIWPGSGGTNYAEKFKNRVTMTRDTSISTAYMELSRLRSDDTAVYYCARSGGPYFFDYWGQGTLVTVSS VL: DIVMTQSPLSLPVTPGEPASISCRSSQNIVHNNGITYLEWYLQKPGQSPQLLIYKVSDRFSGVPDRFSGSGSGTDFTLKISRVEAEDVGVYYCFQGSHIPPTFGQGTKVEIKR | TΔS: -41.2

Attention now shifts to the item below.
response.value for h528Fv 5.12.0 (other) VH: QVQLVQSGAEVKKPGASVKVSCKASGYTFTSYWMHWVRQAPGQGLEWMGNIWPGKGGTNYAEKFQKRVTMTRDTSISTAYMELSRLRSDDTAVYYCARSGGPYFFDYWGQGTLVTVSS VL: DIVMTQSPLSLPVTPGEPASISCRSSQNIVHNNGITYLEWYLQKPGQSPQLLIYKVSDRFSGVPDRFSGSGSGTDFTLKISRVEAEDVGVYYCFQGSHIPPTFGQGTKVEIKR (field: TΔS) = -20.4
